# method.summary: in vivo
# test.parameters: male, SD, rat, po, 5 mg/kg
readout.name: Tmax (min)
Give the number; min is assumed, so skip it.

Per the records, this molecule ( Cc1cc(C(C)(C)F)nc(N2C[C@H]3CN(C(=O)c4c(F)cccc4-n4nccn4)C[C@H]3C2)n1 ) has Tmax equal to 30

----------
Parameter Selectivity multiple: see the listing below.
# measured.target: human OX2R (Homo sapiens (Human))
# Sequence (O43614 whole entry): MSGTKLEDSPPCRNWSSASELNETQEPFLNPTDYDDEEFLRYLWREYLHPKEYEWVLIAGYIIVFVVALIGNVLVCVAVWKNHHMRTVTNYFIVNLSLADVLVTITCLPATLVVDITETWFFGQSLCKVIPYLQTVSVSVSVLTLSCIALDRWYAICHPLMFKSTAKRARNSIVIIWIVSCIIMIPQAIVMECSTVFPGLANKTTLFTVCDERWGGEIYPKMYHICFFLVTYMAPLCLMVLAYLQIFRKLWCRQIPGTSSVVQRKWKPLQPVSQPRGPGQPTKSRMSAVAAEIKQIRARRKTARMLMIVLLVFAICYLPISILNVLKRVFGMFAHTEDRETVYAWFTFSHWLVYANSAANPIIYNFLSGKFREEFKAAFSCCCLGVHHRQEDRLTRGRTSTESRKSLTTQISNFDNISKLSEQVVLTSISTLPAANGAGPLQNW
# method.summary: Calcium flux in cells stably expressing OX2 receptor (FLIPR, Fluo-8 AM)
# Format: cell-based
# test.parameters: OX1R IC50 versus OX2R IC50
Just the number.

Use these answered entries as a reference point.
>  <structure>
CC(C)(O)c1nc(N2C[C@H]3CN(C(=O)c4c(F)cccc4-c4ncccn4)C[C@H]3C2)ncc1F

>  <measured.target>
human OX2R (Homo sapiens (Human))

>  <readout.name>
Selectivity multiple

>  <numeric.readout>
122

$$$$
>  <structure>
Cc1nc(N2C[C@H]3CN(C(=O)c4ccc(F)cc4-n4nccn4)C[C@H]3C2)nc(C(C)(C)O)c1F

>  <measured.target>
human OX2R (Homo sapiens (Human))

>  <readout.name>
Selectivity multiple

>  <numeric.readout>
48

$$$$
>  <structure>
Cc1cc(N2C[C@H]3CN(C(=O)c4c(F)cccc4-n4nccn4)C[C@H]3C2)nc(C(C)(C)O)c1

>  <measured.target>
human OX2R (Homo sapiens (Human))

>  <readout.name>
Selectivity multiple

>  <numeric.readout>
244

$$$$
>  <structure>
Cc1cc(C)nc(N2C[C@H]3CN(C(=O)c4ccccc4OC(F)(F)C(F)F)C[C@H]3C2)n1

>  <measured.target>
human OX2R (Homo sapiens (Human))

>  <readout.name>
Selectivity multiple

>  <numeric.readout>
83

$$$$
>  <structure>
CC(C)(O)c1nc(N2C[C@H]3CN(C(=O)c4c(F)cccc4-n4nccn4)C[C@H]3C2)ccc1F

>  <measured.target>
human OX2R (Homo sapiens (Human))

>  <readout.name>
Selectivity multiple

>  <numeric.readout>
88

$$$$
>  <structure>
Cc1nc(N2C[C@H]3CN(C(=O)c4c(F)cccc4-c4ccccn4)C[C@H]3C2)nc(C(C)(C)O)c1F

>  <measured.target>
human OX2R (Homo sapiens (Human))

>  <readout.name>
Selectivity multiple

>  <numeric.readout>
36

$$$$
>  <structure>
Cc1cc(C)nc(N2C[C@H]3CN(C(=O)c4c(F)cccc4-n4ncc(C5CC5)n4)C[C@H]3C2)n1

>  <measured.target>
human OX2R (Homo sapiens (Human))

>  <readout.name>
Selectivity multiple

>  <numeric.readout>
102

$$$$
>  <structure>
Cc1cc(C(C)(C)F)nc(N2C[C@H]3CN(C(=O)c4c(F)cccc4-n4nccn4)C[C@H]3C2)n1

>  <measured.target>
human OX2R (Homo sapiens (Human))

>  <readout.name>
Selectivity multiple

>  <numeric.readout>
314

$$$$

Per the records, this molecule ( Cc1cc(C(C)(C)O)nc(N2C[C@H]3CN(C(=O)c4c(F)cccc4-c4ncccn4)C[C@H]3C2)n1 ) has Selectivity multiple equal to 405

Per the records, this molecule ( Cc1cc(N2C[C@H]3CN(C(=O)c4c(O)cccc4-n4nccn4)C[C@H]3C2)nc(C(C)(C)O)c1 ) has Selectivity multiple equal to 234

Per the records, this molecule ( Cc1nc(N2C[C@H]3CN(C(=O)c4cccc(F)c4-n4nccn4)C[C@H]3C2)nc(C(C)(C)O)c1F ) has Selectivity multiple equal to 49

Per the records, this molecule ( Cc1ccc(N2C[C@H]3CN(C(=O)c4c(F)cccc4-n4nccn4)C[C@H]3C2)nc1C(C)(C)O ) has Selectivity multiple equal to 328

Per the records, this molecule ( Cc1cc(C)nc(N2C[C@H]3CN(C(=O)c4ccccc4-c4nc5ccccc5o4)C[C@H]3C2)n1 ) has Selectivity multiple equal to 82

Per the records, this molecule ( Cc1cc(C(C)(C)O)nc(N2C[C@H]3CN(C(=O)c4c(F)cccc4-n4nccn4)C[C@H]3C2)n1 ) has Selectivity multiple equal to 83

----------
# method.summary: in vivo
# test.parameters: male, SD, rat, po, 5 mg/kg
readout.name: AUC(0-inf)
Quick note: number first, unit second.

Per the records, this compound ( Cc1cc(C(C)(C)F)nc(N2C[C@H]3CN(C(=O)c4c(F)cccc4-n4nccn4)C[C@H]3C2)n1 [Compound 57] ) has AUC(0-inf) equal to 279 ng·h/mL

----------
# measured.target: human OX1R (Homo sapiens (Human))
# Sequence (O43613 whole entry): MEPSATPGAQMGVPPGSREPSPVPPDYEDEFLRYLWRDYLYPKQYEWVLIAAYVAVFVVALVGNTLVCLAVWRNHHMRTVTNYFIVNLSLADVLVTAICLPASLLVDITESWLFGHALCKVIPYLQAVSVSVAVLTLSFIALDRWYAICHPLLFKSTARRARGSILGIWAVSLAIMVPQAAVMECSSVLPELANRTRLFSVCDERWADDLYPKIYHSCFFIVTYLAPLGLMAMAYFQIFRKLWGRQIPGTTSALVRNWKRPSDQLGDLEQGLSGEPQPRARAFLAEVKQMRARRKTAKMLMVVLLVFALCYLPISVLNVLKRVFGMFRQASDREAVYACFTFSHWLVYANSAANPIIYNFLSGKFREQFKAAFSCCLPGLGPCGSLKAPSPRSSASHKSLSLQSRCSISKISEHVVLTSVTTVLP
# method.summary: Calcium flux in cells stably expressing OX1 receptor (FLIPR, Fluo-8 AM)
# test.parameters: CHO-K1/human OX1R cells; inhibition of calcium flux, agonist OX-A at EC80
Parameter IC50: see the listing below.
Give the number; µM is assumed, so skip it.

Use these answered entries as a reference point.
>  <structure>
Cc1cc(C)nc(N2C[C@H]3CN(C(=O)c4ccccc4OC(F)(F)C(F)F)C[C@H]3C2)n1

>  <numeric.readout>
4.33

$$$$
>  <structure>
Cc1nc(N2C[C@H]3CN(C(=O)c4ccc(F)cc4-n4nccn4)C[C@H]3C2)nc(C(C)(C)O)c1F

>  <numeric.readout>
1.2

$$$$
>  <structure>
Cc1cc(C(C)(C)O)nc(N2C[C@H]3CN(C(=O)c4c(F)cccc4-c4ncccn4)C[C@H]3C2)n1

>  <numeric.readout>
3.32

$$$$
>  <structure>
Cc1cc(C)nc(N2C[C@H]3CN(C(=O)c4c(F)cccc4-n4ncc(C5CC5)n4)C[C@H]3C2)n1

>  <numeric.readout>
10.2

$$$$
>  <structure>
Cc1cc(N2C[C@H]3CN(C(=O)c4c(O)cccc4-n4nccn4)C[C@H]3C2)nc(C(C)(C)O)c1

>  <numeric.readout>
13.7

$$$$
>  <structure>
Cc1cc(C(C)(C)F)nc(N2C[C@H]3CN(C(=O)c4c(F)cccc4-n4nccn4)C[C@H]3C2)n1

>  <numeric.readout>
3.05

$$$$
>  <structure>
Cc1cc(N2C[C@H]3CN(C(=O)c4c(F)cccc4-n4nccn4)C[C@H]3C2)nc(C(C)(C)O)c1

>  <numeric.readout>
13.5

$$$$
>  <structure>
Cc1cc(C)nc(N2C[C@H]3CN(C(=O)c4ccccc4-c4nc5ccccc5o4)C[C@H]3C2)n1

>  <numeric.readout>
5.84

$$$$
>  <structure>
Cc1cc(C(C)(C)O)nc(N2C[C@H]3CN(C(=O)c4c(F)cccc4-n4nccn4)C[C@H]3C2)n1

>  <numeric.readout>
3.7

$$$$
>  <structure>
Cc1ccc(N2C[C@H]3CN(C(=O)c4c(F)cccc4-n4nccn4)C[C@H]3C2)nc1C(C)(C)O

>  <numeric.readout>
24.4

$$$$

Per the records, this compound ( CC(C)(O)c1nc(N2C[C@H]3CN(C(=O)c4c(F)cccc4-n4nccn4)C[C@H]3C2)ccc1F ) has IC50 equal to 3.16

----------
Parameter IC50: see the listing below.
# measured.target: CYP450 2C9 (Homo sapiens (Human), UniProt P11712)
# Sequence (P11712 whole entry): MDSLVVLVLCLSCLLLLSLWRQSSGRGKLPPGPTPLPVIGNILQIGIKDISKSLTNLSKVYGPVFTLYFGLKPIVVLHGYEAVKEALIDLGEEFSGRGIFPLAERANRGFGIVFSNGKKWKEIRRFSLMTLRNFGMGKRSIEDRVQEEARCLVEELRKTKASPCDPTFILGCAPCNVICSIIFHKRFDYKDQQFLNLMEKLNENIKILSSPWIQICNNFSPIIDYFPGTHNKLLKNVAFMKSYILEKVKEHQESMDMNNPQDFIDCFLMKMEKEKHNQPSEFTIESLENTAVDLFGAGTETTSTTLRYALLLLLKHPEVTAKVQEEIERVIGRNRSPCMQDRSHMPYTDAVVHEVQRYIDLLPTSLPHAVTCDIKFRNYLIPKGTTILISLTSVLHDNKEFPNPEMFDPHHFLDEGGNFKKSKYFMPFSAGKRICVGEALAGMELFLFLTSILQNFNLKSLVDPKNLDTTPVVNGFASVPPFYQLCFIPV
# method.summary: CYP enzyme single point inhibition assay, human liver microsomes, 2C9
# Assay type: in vitro ADME
# test.parameters: single-point method

>  <molecule>
CC(C)(O)c1nc(N2C[C@H]3CN(C(=O)c4c(F)cccc4-c4ncccn4)C[C@H]3C2)ncc1F [Compound 93]

>  <IC50>
> 100 µM

$$$$

Next, consider the following molecule.
Per the records, this molecule ( Cc1nc(N2C[C@H]3CN(C(=O)c4cccc(F)c4-n4nccn4)C[C@H]3C2)nc(C(C)(C)O)c1F [Compound 95] ) has IC50 equal to > 100 µM
